- target under test: rat TAAR1 (Rattus norvegicus)
- Construct: expressed in transfected cells; host or cells: HEK293 (ATCC # CRL-1573), stably transfected with pIRESneo2 expression plasmid
- Sequence (Q923Y9 whole entry): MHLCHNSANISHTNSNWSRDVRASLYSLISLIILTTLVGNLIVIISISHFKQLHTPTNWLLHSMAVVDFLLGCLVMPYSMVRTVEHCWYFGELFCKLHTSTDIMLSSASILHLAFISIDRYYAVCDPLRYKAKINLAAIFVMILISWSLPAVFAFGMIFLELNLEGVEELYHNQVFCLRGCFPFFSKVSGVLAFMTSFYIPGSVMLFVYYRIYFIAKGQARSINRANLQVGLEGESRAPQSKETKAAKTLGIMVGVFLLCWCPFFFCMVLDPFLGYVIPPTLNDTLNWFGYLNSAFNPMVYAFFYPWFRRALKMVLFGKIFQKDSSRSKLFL
- method: TAAR1 radioligand binding with [3H]-rac-2-(1,2,3,4-tetrahydro-1-naphthyl)-2-imidazoline, membranes of stably transfected HEK293 cells
- conditions: second value of the cell, read-out: Ki (μM) mouse/rat: rat
Please respond with reported Ki for every item in the list.
Reply numerically in µM, unit not repeated.

So what does the record say about Ki for NC1=N[C@@H](CCc2ccc(NC(=O)c3ccc4cccnc4n3)cc2)CO1 [Example 105] ?
0.0011

Ok, now NC1=N[C@@H](CCc2ccc(NC(=O)CCc3ccccc3Cl)cc2)CO1 [Example 80]
0.0011

Same for NC1=N[C@@H](CCc2ccc(NC(=O)Nc3cccc(Cl)c3)cc2)CO1 [Example 95]
0.0001

Same thing, different compound: Cc1cc(C(=O)Nc2ccc(CC[C@H]3COC(N)=N3)cc2)sc1C [Example 202]
0.0004

Ok, now NC1=N[C@@H](CCc2ccc(NC(=O)Nc3ccc(F)cc3)cc2)CO1 [Example 94]
0.0003

Check NC1=N[C@@H](CCc2ccc(NC(=O)c3cncc(Cl)c3)cc2)CO1 [Example 124] too.
0.0061

What do you have for CCOc1ccc(CC(=O)Nc2ccc(CC[C@H]3COC(N)=N3)cc2)cc1 [Example 66] ?
0.0017

Do the same for NC1=N[C@@H](CCc2ccc(NC(=O)Nc3ccc(Cl)c(Cl)c3)cc2)CO1 [Example 14] please
0.0001

// same read-out, input: NC1=N[C@@H](CCc2ccc(NC(=O)c3cccc(Br)n3)cc2)CO1 [Example 112]
0.0005

----------
- target under test: mouse TAAR1 (Mus musculus, UniProt Q923Y8)
- Construct: expressed in transfected cells; host or cells: HEK293 (ATCC # CRL-1573), stably transfected with pIRESneo2 expression plasmid
- Sequence (Q923Y8 whole entry): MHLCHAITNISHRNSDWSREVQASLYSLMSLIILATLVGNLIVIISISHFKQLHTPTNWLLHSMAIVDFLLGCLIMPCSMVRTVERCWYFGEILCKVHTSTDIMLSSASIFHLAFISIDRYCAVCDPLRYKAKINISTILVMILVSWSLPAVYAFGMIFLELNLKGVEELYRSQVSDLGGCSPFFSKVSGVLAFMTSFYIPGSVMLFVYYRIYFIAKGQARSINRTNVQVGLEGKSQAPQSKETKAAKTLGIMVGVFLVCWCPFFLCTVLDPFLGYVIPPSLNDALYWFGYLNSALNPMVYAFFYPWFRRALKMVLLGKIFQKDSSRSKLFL
- method: TAAR1 radioligand binding with [3H]-rac-2-(1,2,3,4-tetrahydro-1-naphthyl)-2-imidazoline, membranes of stably transfected HEK293 cells
- conditions: first value of the cell, read-out: Ki (μM) mouse/rat: mouse
experimental endpoint: Ki
Just the number plus its unit, please.

I'm curious: which Ki was measured for NC1=N[C@@H](CCc2ccc(NC(=O)Oc3ccc(F)cc3)cc2)CO1 [Example 148] tested on mouse TAAR1 (Mus musculus, UniProt Q923Y8)?
0.0005 µM

Same read-out for CCc1cncc(C(=O)Nc2ccc(CC[C@H]3COC(N)=N3)cc2)n1 [Example 211] ?
0.0023 µM

And for NC1=N[C@@H](CCc2ccc(NC(=O)C3CC3)cc2)CO1 [Example 46] ?
0.0042 µM

Same again, this time with NC1=N[C@@H](CCc2ccc(NC(=O)C3CCC(C(F)(F)F)CC3)cc2)CO1 (some centres unmarked) [Example 79]
0.0057 µM

Now consider NC1=N[C@@H](CCc2ccc(NC(=O)c3ccc(Br)nc3)cc2)CO1 [Example 106] and answer again.
0.0012 µM

How about this molecule: NC1=N[C@@H](CCc2ccc(NC(=O)c3nc4ccccc4[nH]3)cc2)CO1 [Example 86]
0.0022 µM

Same question, Cc1cc(C(=O)Nc2ccc(CC[C@H]3COC(N)=N3)cc2)sc1C [Example 202] this time
0.0007 µM

Next up: COc1cc(C(=O)Nc2ccc(CC[C@H]3COC(N)=N3)cc2)nc(OC)n1 [Example 190]
0.0041 µM

Also need NC1=NC(c2ccc(NC(=O)Nc3ccc(Cl)cc3)cc2)CO1 (racemic) [Example 1] , thanks.
0.0026 µM

Likewise for NC1=N[C@@H](CCc2ccc(NC(=O)Nc3ccc(Cl)cc3)cc2)CO1 [Example 3] ?
0.0002 µM

Okay, and NC1=N[C@@H](CCc2ccc(NC(=O)c3ccc(F)cn3)cc2)CO1 [Example 96] ?
0.001 µM

// next record N#Cc1ccc(C(=O)Nc2ccc(CC[C@H]3COC(N)=N3)cc2)cc1 [Example 59]
0.0022 µM

Would you kindly repeat that for CC(C)(C)c1cc(C(=O)Nc2ccc(CC[C@H]3COC(N)=N3)cc2)ccn1 [Example 197] ?
0.003 µM

# repeat for COc1ccc(C(=O)Nc2ccc(CC[C@H]3COC(N)=N3)cc2)cn1 [Example 97]
0.0018 µM

Subsequent entry: Cn1cc(Cl)c(C(=O)Nc2ccc(CC[C@H]3COC(N)=N3)cc2)n1 [Example 194]
0.0091 µM

And what about the molecule NC1=N[C@@H](CCc2ccc(NC(=O)c3cnc(C(F)(F)F)nc3C3CC3)cc2)CO1 [Example 209] ?
0.0013 µM

Lookup NC1=N[C@@H](CCc2ccc(NC(=O)Cc3ccc(F)cc3)cc2)CO1 [Example 69]
0.003 µM
